Tested on: α2 I E318W
Type: binding, human
cond: 1 μg peptide coated per well; 10 μg/ml GST I domain, 2 mM MgCl2; six paired experiments in triplicate (Fig. 2A)
measured_attribute: Binding of α2 I E318W to shorter triple-helical Gxx'GEx'' peptides (A450)

substance	obs_value
GFOGER [positive control]	bound well
GLOGER	bound well
GLOGEN	bound well

----------
Test system: α2 I E318W
Type: binding, human
Method: I domain adhesion was determined colorimetrically using a solid-phase binding assay, modified slightly from our previous studies, [16], [32] and specified below. Wells were coated using 1 μg peptide in 100 μl 0.01 M acetic acid for 1 h at 22°C on Immulon-2 HB 96-well plates (Thermo Life Sciences, Basingstoke, UK), and blocked for 1 h with 200 μl of TBS containing 50 mg/ml bovine serum albumin). […]
measured_attribute: Change in binding of α2 I E318W compared with wild-type α2 I domain

substance	obs_value
GASGER	several-fold increases
GLKGEN	several-fold increases
GQRGER	several-fold increases
